- TARGET_SYSTEM: GLP-1R (Homo sapiens, UniProt P43220)
- Sequence (P43220 24-463): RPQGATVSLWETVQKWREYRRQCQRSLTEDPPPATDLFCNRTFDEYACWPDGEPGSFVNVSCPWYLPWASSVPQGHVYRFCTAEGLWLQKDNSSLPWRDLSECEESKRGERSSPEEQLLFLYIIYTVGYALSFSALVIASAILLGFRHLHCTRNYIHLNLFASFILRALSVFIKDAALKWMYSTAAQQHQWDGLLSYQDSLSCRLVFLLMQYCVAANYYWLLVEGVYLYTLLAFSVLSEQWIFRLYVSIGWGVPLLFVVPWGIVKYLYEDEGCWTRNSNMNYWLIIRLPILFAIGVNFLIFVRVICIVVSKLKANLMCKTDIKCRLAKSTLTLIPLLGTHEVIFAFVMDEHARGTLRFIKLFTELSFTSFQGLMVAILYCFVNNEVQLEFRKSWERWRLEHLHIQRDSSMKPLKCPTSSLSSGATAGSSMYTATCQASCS
- ASSAY_INFO: GLP-1R agonist cAMP stimulation assay (HTRF cAMP)
- TEST_SETTINGS: HEK293 cell line expressing GLP-1 target; HTRF cAMP agonist mode, 30 min at RT
pEC50: −log10 of the molar value.
Class assignment keyed on pEC50, ranges bottom = under 8, middle = from 8 up to 9, top = 9 and over

INSERT INTO results (molecule, target_system, category_label) VALUES
  ('Cc1n[nH]c2c(F)cc(NC(=O)c3ccc4c(c3)nc(CN3CCC(c5cccc(OCc6ccc(C#N)c7c6ncn7C)n5)CC3)n4C[C@@H]3CCO3)cc12', 'GLP-1R (Homo sapiens, UniProt P43220)', 'middle'),
  ('Cc1n[nH]c2ccc(NC(=O)c3ccc4c(c3)nc(CN3CCC(c5cccc(OCc6ccc(C#N)cc6F)n5)CC3)n4C[C@@H]3CCO3)cc12', 'GLP-1R (Homo sapiens, UniProt P43220)', 'top'),
  ('N#Cc1ccc(COc2cccc(C3CCN(Cc4nc5cc(C(=O)NCC(=O)N6C[C@@H](F)C[C@H]6C(=O)O)ccc5n4C[C@@H]4CCO4)CC3)n2)c(F)c1', 'GLP-1R (Homo sapiens, UniProt P43220)', 'middle');

# input State the band of COCCn1c(Cc2ccc(-c3cccc(OCc4ccc(C#N)cc4F)n3)cc2)nc2cc(C(=O)NCCc3ccc(C(=O)NCCc4ccc(C(=O)O)cc4)cc3)ccc21
# output bottom

# input State the band of COCCn1c(CN2CCC(c3cccc(OCc4ccc(Cl)cc4F)n3)CC2)nc2cc(C(=O)NCc3ccc(O)nc3)ccc21
# output bottom

# input State the band of O=C(Nc1ccn2ncc(Cl)c2c1)c1ccc2c(c1)nc(CN1CC=C(c3cccc(OCc4ccc(Cl)cc4F)n3)CC1)n2CC1CCO1 (centres unmarked)
# output bottom

====

- TARGET_SYSTEM: GLP-1R (Homo sapiens, UniProt P43220)
- ASSAY_INFO: GLP-1R agonist cAMP stimulation assay (HTRF cAMP)
- TEST_SETTINGS: HEK293 cell line expressing GLP-1 target; HTRF cAMP agonist mode, 30 min at RT
MEASURED_QUANTITY: pEC50
By convention, pEC50 is the negative base-10 log of a molar concentration.

Previously resolved entries follow.
INSERT INTO assay_data (compound, measured) VALUES
  ('N#Cc1ccc(COc2cccc(C3=CCN(Cc4nc5cc(NC(=O)c6cc(F)c7c(c6)C6(CC6)C(=O)N7)ccc5n4C[C@@H]4CCO4)CC3)n2)c(F)c1 [Compound 227]', 9.66),
  ('Cc1cc(C(=O)Nc2ccc3c(c2)nc(CN2CC=C(c4cccc(OCc5ccc(Cl)cc5F)n4)CC2)n3C[C@@H]2CCO2)cc2c(C(F)F)n[nH]c12 [Compound 217]', 9.10),
  ('Cc1cc(NC(=O)c2ccc3nc(CN4CC=C(c5cccc(OCc6ccc(Cl)cc6F)n5)CC4)n(C[C@@H]4CCO4)c3c2)cc2c1NC(=O)C21CC1 [Compound 267]', 8.70);

Continue with the next compound.
# input Query pEC50 for Cc1cc(NC(=O)c2ccc3c(c2)nc(CN2CC=C(c4cccc(OCc5ccc(Cl)cc5F)n4)CC2)n3C[C@@H]2CCO2)cc2c1NC(=O)C21CC1 [Compound 155]
# output 9.26

====

- TARGET_SYSTEM: GLP-1R (Homo sapiens, UniProt P43220)
- ASSAY_INFO: GLP-1R agonist cAMP stimulation assay (HTRF cAMP)
- TEST_SETTINGS: HEK293 cell line expressing GLP-1 target; HTRF cAMP agonist mode, 30 min at RT
Each record is given class 1 if its reported EC50 is strictly below 0.002 µM. Records at or above 0.002 µM are given class 0.

INSERT INTO measurements (compound, target_system, category_label) VALUES
  ('O=C(Nc1ccc2nc(CN3CC=C(c4cccc(OCc5ccc(Cl)cc5F)n4)CC3)n(CC3CCO3)c2c1)c1ccc2[nH]nc(F)c2c1 (stereo not drawn)', 'GLP-1R (Homo sapiens, UniProt P43220)', 'class 0');

# input Say whether its EC50 is strictly beneath 0.002 µM. Entry: Cc1n[nH]c2c(F)cc(NC(=O)c3cc4c(nc(CN5CC=C(c6cccc(OCc7ccc(Cl)cn7)n6)CC5)n4C[C@@H]4CCO4)s3)cc12
# output class 0

# input Say whether its EC50 is strictly beneath 0.002 µM. Entry: O=C(Nc1ccc2c(c1)nc(CN1CC=C(c3cccc(OCc4ccc(Cl)cc4F)n3)CC1)n2C[C@@H]1CCO1)c1ccc2[nH]nc(C(F)(F)F)c2c1
# output class 0

# input Say whether its EC50 is strictly beneath 0.002 µM. Entry: COCCn1c(CN2CCC(c3cccc(OCc4ccc(Cl)cc4F)n3)CC2)nc2cc(C(=O)NCCCc3ccc(OC)cc3)ccc21
# output class 0

# input Say whether its EC50 is strictly beneath 0.002 µM. Entry: Cc1cc(C(=O)Nc2ccc3c(c2)nc(CN2CC=C(c4cccc(OCc5ccc(C#N)cc5F)n4)CC2)n3C[C@@H]2CCO2)cc2c(C3CC3)n[nH]c12
# output class 1

# input Say whether its EC50 is strictly beneath 0.002 µM. Entry: COCCn1c(CN2CCC(c3cccc(OCc4ccc(Cl)cc4F)n3)CC2)nc2cc(C(=O)NCCc3c[nH]c4ccc(O)cc34)ccc21
# output class 0

# input Say whether its EC50 is strictly beneath 0.002 µM. Entry: Cc1n[nH]c2ccc(C(=O)Nc3ccc4c(c3)nc(CN3CC=C(c5cccc(OCc6ccc(Cl)cn6)n5)CC3)n4C[C@@H]3CCO3)cc12 [Compound 198]
# output class 1

# input Say whether its EC50 is strictly beneath 0.002 µM. Entry: Cc1n[nH]c2cc(NC(=O)c3ccc4c(c3)nc(CN3CCC(c5cccc(OCc6ccc(Cl)cc6F)n5)CC3)n4C[C@@H]3CCO3)ccc12
# output class 0

# input Say whether its EC50 is strictly beneath 0.002 µM. Entry: O=C(Nc1cnn2[nH]ccc12)c1ccc2c(c1)nc(CN1CC=C(c3cccc(OCc4ccc(Cl)cc4F)n3)CC1)n2C[C@@H]1CCO1
# output class 0

# input Say whether its EC50 is strictly beneath 0.002 µM. Entry: Cc1cc(C(=O)Nc2ccc3c(c2)nc(CN2CCC(c4cccc5c4OC(C)(c4ccc(Cl)cc4F)O5)CC2)n3C[C@@H]2CCO2)cc2[nH]c(=O)[nH]c12 (stereo partly drawn)
# output class 1

# input Say whether its EC50 is strictly beneath 0.002 µM. Entry: Cc1cc(C(=O)Nc2ccc3c(c2)nc(CN2CC=C(c4cccc(OCc5ccc(Cl)cc5F)n4)CC2)n3C[C@@H]2CCO2)cc2nn[nH]c12
# output class 1

# input Say whether its EC50 is strictly beneath 0.002 µM. Entry: O=C(Nc1ccc2c(c1)nc(CN1CC=C(c3cccc(OCc4ccc(Cl)cc4F)n3)CC1)n2C[C@@H]1CCO1)c1ccc2[nH]ccc2c1
# output class 0

====

- TARGET_SYSTEM: GLP-1R (Homo sapiens, UniProt P43220)
- ASSAY_INFO: GLP-1R agonist cAMP stimulation assay (HTRF cAMP)
- Format: cell-based
- TEST_SETTINGS: HEK293 cell line expressing GLP-1 target; HTRF cAMP agonist mode, 30 min at RT
pEC50: −log10 of the molar value.
pEC50 below 9 gives criterion not met; pEC50 at or above it gives criterion met.

Solved entries:
INSERT INTO results (compound, target_system, category_label) VALUES
  ('Cc1n[nH]c2ncc(NC(=O)c3ccc4c(c3)nc(CN3CC=C(c5cccc(OCc6ccc(Cl)cc6F)n5)CC3)n4C[C@@H]3CCO3)cc12 [Compound 189]', 'GLP-1R (Homo sapiens, UniProt P43220)', 'criterion not met'),
  ('Cc1cc(NC(=O)c2ccc3c(c2)nc(CN2CCC(c4cccc(OCc5ccc(Cl)cc5F)n4)CC2)n3C[C@@H]2CCO2)cc2nn[nH]c12 [Compound 194]', 'GLP-1R (Homo sapiens, UniProt P43220)', 'criterion met');

# input Reported pEC50 at or above 9? Cc1nc2ccc(NC(=O)c3ccc4c(c3)nc(CN3CCC(c5cccc(OCc6ccc(Cl)cc6F)n5)CC3)n4C[C@@H]3CCO3)cc2s1 [Compound 95]
# output criterion not met

# input Reported pEC50 at or above 9? CC(C)c1n[nH]c2ccc(C(=O)Nc3ccc4c(c3)nc(Cc3cc(F)c(-c5cccc6c5OC(C)(c5ccc(C#N)cc5F)O6)cc3F)n4CC3CCO3)cc12 (stereo not drawn) [Compound 323]
# output criterion not met

====

- TARGET_SYSTEM: GLP-1R (Homo sapiens, UniProt P43220)
- ASSAY_INFO: GLP-1R agonist cAMP stimulation assay (HTRF cAMP)
- TEST_SETTINGS: HEK293 cell line expressing GLP-1 target; HTRF cAMP agonist mode, 30 min at RT
In this section we review reported EC50 values for a set of compounds.
// units = nM; emit number, no label

Previously resolved entries follow.
INSERT INTO results (compound, measured) VALUES
  ('Cc1n[nH]c2cc(F)c(NC(=O)c3ccc4c(c3)nc(CN3CCC(c5cccc(OCc6ccc(Cl)cc6F)n5)CC3)n4C[C@@H]3CCO3)cc12 [Compound 123]', 5.49),
  ('Cc1cc2c(C#N)ccc(COc3cccc(C4=CCN(Cc5nc6cc(NC(=O)c7ccc8[nH]nc(C(F)(F)F)c8c7)ccc6n5C[C@@H]5CCO5)CC4)n3)c2o1 [Compound 359]', 1.62),
  ('COC(=O)[C@@H]1C[C@H](O)CN1C(=O)CNC(=O)c1ccc2c(c1)nc(CN1CCC(c3cccc(OCc4ccc(Cl)cc4F)n3)CC1)n2C[C@@H]1CCO1 [Compound 63]', 0.49),
  ('COc1n[nH]c2ccc(NC(=O)c3ccc4c(c3)nc(CN3CCC(c5cccc(OCc6ccc(Cl)cc6F)n5)CC3)n4C[C@@H]3CCO3)cc12 [Compound 81]', 14.5),
  ('COCCn1c(CN2CCC(c3cccc(OCc4ccc(Cl)cc4F)n3)CC2)nc2cc(C(=O)NCc3ccc(O)c(OC)c3)ccc21 [Compound 28]', 75.7);

Continue with the next compound.
# input Query EC50 for Cc1n[nH]c2ccc(NC(=O)c3ccc4c(n3)nc(CN3CC=C(c5cccc(OCc6ccc(Cl)cc6F)n5)CC3)n4C[C@@H]3CCO3)cc12 [Compound 136]
# output 2.19
